Origin of measurements: ChEMBL document CHEMBL1143519

# Target Under Test: Melanocortin receptor 4 (Homo sapiens, UniProt P32245)
# Sequence (P32245 whole entry): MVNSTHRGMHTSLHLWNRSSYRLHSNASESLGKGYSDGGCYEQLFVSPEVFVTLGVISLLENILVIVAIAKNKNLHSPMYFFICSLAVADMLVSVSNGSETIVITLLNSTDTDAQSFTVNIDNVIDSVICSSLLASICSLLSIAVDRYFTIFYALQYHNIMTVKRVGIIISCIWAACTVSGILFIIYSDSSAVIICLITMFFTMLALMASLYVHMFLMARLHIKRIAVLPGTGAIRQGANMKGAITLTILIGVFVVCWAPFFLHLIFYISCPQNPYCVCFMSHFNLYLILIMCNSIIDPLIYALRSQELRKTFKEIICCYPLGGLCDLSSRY
# Measurement Conditions: at 10 µM
Metric: Accumulation (%)

> print(dat)
                                   compound        metric  data.value
1  CC[C@H]1CN[C@H](C(=O)N[C@H](Cc2ccc(F)cc2)C(=O)N2CCC(C(=O)NC(C)(C)C)(C3CCCCC3)CC2)CN1C  Accumulation          85
2  CC(C)C1CNC[C@@H](C(=O)N[C@H](Cc2ccc(F)cc2)C(=O)N2CCC(C(=O)NC(C)(C)C)(C3CCCCC3)CC2)N1 (some centres undefined)  Accumulation          92
3  CC[C@H]1CN[C@H](C(=O)N[C@H](Cc2ccc(F)cc2)C(=O)N2CCC(C(=O)NC(C)(C)C)(C3CCCCC3)CC2)CN1  Accumulation          89
4  CC(C)(C)NC(=O)C1(C2CCCCC2)CCN(C(=O)[C@@H](Cc2ccc(F)cc2)NC(=O)[C@@H]2CN[C@H](C(C)(C)C)CN2)CC1  Accumulation          77

* * *

# Target Under Test: UniProt P32245
# Method Description: Inhibitory concentration to displace [125I]NDP-alpha-MSH from human melanocortin 4 receptor expressed in CHO cells; Control 19 nM
# Assay type: cell-based
Metric: IC50 (nM)

> print(dat)
                                   compound  metric  data.value
1  CC(C)C1CNC[C@@H](C(=O)N[C@H](Cc2ccc(F)cc2)C(=O)N2CCC(C(=O)NC(C)(C)C)(C3CCCCC3)CC2)N1 (some centres undefined)    IC50          11
2  C[C@H]1CN[C@H](C(=O)N[C@H](Cc2ccc(F)cc2)C(=O)N2CCC(C(=O)NC(C)(C)C)(C3CCCCC3)CC2)CN1    IC50           6

A: CC(C)(C)NC(=O)C1(C2CCCCC2)CCN(C(=O)[C@@H](Cc2ccc(F)cc2)NC(=O)[C@@H]2CNC3(CC3)CN2)CC1
B: CC(C)(C)NC(=O)C1(C2CCCCC2)CCN(C(=O)[C@@H](Cc2ccc(F)cc2)NC(=O)[C@@H]2CN[C@@H](C3CC3)CN2)CC1
Hi, I'm comparing A with B and wondering which one has the bigger number for IC50. Any idea? Answer with the label corresponding to your selection.
A
